- Test system: OVCAR-5 ovarian
- protocol_details: NCI tumour cell line growth inhibition, 48 h; in the data active = GI50 below about 0.43 µM; inactive = the rest
Response enum: active, inactive

Record lookup: outcome of this test for CCCCCCCCCCC(O)[C@H]1CCC(C2CC[C@H]([C@H](O)CCCCCCCCCCC(O)CC3=CC(C)OC3=O)O2)O1 (stereo partly drawn) ?
inactive

Record lookup: outcome of this test for `Cc1nc2cnc3cc(F)c(-c4ccc(Oc5ncccn5)cc4Cl)cc3c2n1[C@H]1CCN(C(=O)CO)C[C@@H]1F` ?
active

Record lookup: outcome of this test for `Cc1ccc2cc3c(ccc4ccccc43)c3c2c1CC3` ?
inactive

Record lookup: outcome of this test for CC1=CCC(OC(=O)C(C)(C)CCC(O)(C(=O)OC2(C(C)C)CCC3(C)OC3C2)C(C)C)(C(C)C)CC1 (stereo not drawn) ?
inactive

Record lookup: outcome of this test for `O=C1C=C[C@@]23C[C@@H](Nc4c(O)c5c6c(c42)=NCCC=6C=N5)SC3=C1` ?
inactive

Record lookup: outcome of this test for `COc1ccc(-c2cnnn2-c2cc(OC)c3c(c2)OCO3)cc1` ?
inactive

Record lookup: outcome of this test for `C[C@H]1[C@H](C)CC[C@]2(C(=O)N3CCN(C)CC3)CC[C@]3(C)C(=CC[C@@H]4[C@@]5(C)C/C(=C/c6cccnc6)C(=O)C(C)(C)[C@@H]5CC[C@]43C)[C@H]12` ?
inactive

Record lookup: outcome of this test for CC(CN1CCN(C)CC1)CN1c2ccccc2Sc2ccc(C(F)(F)F)cc21 (stereo not drawn) ?
inactive

Record lookup: outcome of this test for COc1cc(C(O)c2nc3ccccc3s2)cc(OC)c1OC (stereo not drawn) ?
inactive

Record lookup: outcome of this test for `NC(=NC1CCCCCCC1)c1ccc(N2CCN(c3ccc(C(N)=NC4CCCCCCC4)cc3)CC2)cc1` ?
inactive

Record lookup: outcome of this test for `[C-]#[O+].[C-]#[O+].[C-]#[O+].[C-]#[O+].[Ir].[Ir].[O-]c1ccc2ccccc2c1C=Nc1ccc(N=Cc2c([O-])ccc3ccccc23)cc1` ?
inactive

Record lookup: outcome of this test for `CN(c1ccc(NC(=O)Nc2ccc(OC(F)(F)F)cc2)cc1)c1ccnc(Nc2cccc(S(N)(=O)=O)c2)n1` ?
inactive

Record lookup: outcome of this test for CCc1cccc2c3c(sc12)C(c1ccc(Cl)cc1)C(C#N)=C(N)O3 (stereo not drawn) ?
inactive

Record lookup: outcome of this test for `O=C(/C=C/c1cccs1)c1ccc(Nc2nc(Nc3ccc(F)cc3)nc(Nc3ccc(F)cc3)n2)cc1` ?
inactive

Record lookup: outcome of this test for `N=c1c2c(-c3ccccc3)c(-c3ccccc3)n(Cc3ccccc3)c2ncn1CCCO` ?
inactive

Record lookup: outcome of this test for `CCCCCCCCCCCCCCCC[N+](C)(C)CCN(Cc1ccc(OC)cc1)c1ncccn1` ?
inactive

Record lookup: outcome of this test for `Cn1ccc2c(c1=O)C(=O)c1nccc3c1c-2nc1ccccc13` ?
inactive

Record lookup: outcome of this test for `O=Cc1cn(Cc2cccc(Cl)c2)c2ccccc12` ?
active
